Lab note: pKd readings collected with rBmLDH (Babesia microti) for the following molecules.
Sequence (I7J7V6 1-332): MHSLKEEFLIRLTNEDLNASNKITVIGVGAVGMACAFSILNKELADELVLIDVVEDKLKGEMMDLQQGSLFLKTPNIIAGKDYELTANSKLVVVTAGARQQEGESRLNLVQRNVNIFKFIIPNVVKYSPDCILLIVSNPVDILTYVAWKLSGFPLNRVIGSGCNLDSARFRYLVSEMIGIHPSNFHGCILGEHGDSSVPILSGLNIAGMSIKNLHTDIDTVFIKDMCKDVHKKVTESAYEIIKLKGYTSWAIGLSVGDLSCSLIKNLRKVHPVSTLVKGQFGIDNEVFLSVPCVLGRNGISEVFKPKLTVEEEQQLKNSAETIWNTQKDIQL
Schema: pKd number; meaning minus log10 of the concentration expressed in molar units.

> print(dat)
                          smilesinput             assayedtarget   val
1  O=C(O)c1cccc(-c2ccc3ccc(O)cc3c2)c1  rBmLDH (Babesia microti)  4.88

Query: GET /values?readout=pKd&item= O=C(O)c1ccccc1Cc1ccc2ccc(O)cc2c1
Result: 4.95

====

assay: in vitro; assay type: cell-based; details: African green monkey
recordedEndpoint: CC50 at 72 h (µM)
Return type: number; implicit unit µM.

> print(dat)
                                compound  outputunit   val
1  O=C(O)c1ccccc1Cc1ccc2ccc(O)cc2c1 [TA]          µM  1030

Query: GET /values?readout=CC50 at 72 h&item= O=C(O)c1cccc(-c2ccc3ccc(O)cc3c2)c1 [TB]
Result: 434
